Kindly supply the reported amyloid nucleation score values for the records listed here.
- measurement.protocol: amyloid nucleation score (Sup35N fusion, yeast selection) (log enrichment); library NNK2; higher = more nucleation; inactive = no reads after selection;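 note: zero at mode of non-aggregating sequences after 7 days selection at 30°C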

Look up and state reported amyloid nucleation score for SGYCQDCSSGPFESDGINIS -0.321

Look up and state reported amyloid nucleation score for VKFWYWAVDLDSCVRCGDGA 6.59

Look up and state reported amyloid nucleation score for KEAPFCASGLPD -0.324

----------
- measurement.protocol: amyloid nucleation score (Sup35N fusion, yeast selection) (log enrichment); library NNK3; higher = more nucleation; inactive = no reads after selection
assay.readout: amyloid nucleation score

substance: FKNCHGVVTRCQW
amyloid nucleation score: inactive
--
substance: ICRRPYFSHLRSHRGFQNTD
amyloid nucleation score: inactive
--
substance: HKCMCVY
amyloid nucleation score: inactive
--
substance: MLRSDPS
amyloid nucleation score: inactive
--
substance: SRGEKNSNFTWTNDFDFFRV
amyloid nucleation score: inactive

Look up and state reported amyloid nucleation score for LLLYLN inactive

Look up and state reported amyloid nucleation score for CAFPVDGRGTIVVFRHVLEG inactive

Look up and state reported amyloid nucleation score for AWGSVYVALVWRWNFRCVR inactive

Look up and state reported amyloid nucleation score for LAVVNYQSFTNVEWVGNRIK inactive

Look up and state reported amyloid nucleation score for YGLHTGKSKALQQRIVW inactive

Look up and state reported amyloid nucleation score for DSRFEWLLTLYYRFYLHNGR inactive

----------
- measurement.protocol: amyloid nucleation score (Sup35N fusion, yeast selection) (log enrichment); library NNK2; higher = more nucleation; inactive = no reads after selection
assay.readout: amyloid nucleation score

Some solved cases for reference:
sequence.input: SEWEYPNINE
measured: inactive
//
sequence.input: FICPMYESSRIVV
measured: 0.335
//
sequence.input: EFCIPKNLRSW
measured: 0.182
//
sequence.input: FHIFQFVSLGFWSSEG
measured: inactive
//
sequence.input: TRCFQILPCYRI
measured: -0.624

Look up and state reported amyloid nucleation score for ESDMCFVWSIELVGLMFKLI -0.979

Look up and state reported amyloid nucleation score for FCVLIGGCFFGNSK 6.16

Look up and state reported amyloid nucleation score for DSDKLHDRDVVWNWGRGLYR 0.399

Look up and state reported amyloid nucleation score for ESICAKWFMIDMNSTHWTGF -0.614

Look up and state reported amyloid nucleation score for LTTKKLRSWV -0.895

Look up and state reported amyloid nucleation score for YNLYHSCLDQRTYHSGKFSI 2.3

----------
- measurement.protocol: amyloid nucleation score (Sup35N fusion, yeast selection) (log enrichment); library NNK2; higher = more nucleation; inactive = no reads after selection
Kindly supply the reported amyloid nucleation score values for the records listed here.
Keep the answer to the number alone.

Look up and state reported amyloid nucleation score for RVVWWVVGFS -0.297

Look up and state reported amyloid nucleation score for VAQAQQQYP 1.08

Look up and state reported amyloid nucleation score for FGYVVVKRPSSMLLRASRDG -0.619

Look up and state reported amyloid nucleation score for YLWDRSATRS 0.605

Look up and state reported amyloid nucleation score for RLRNLFSYWLSEERSGPDGW 2.03

Look up and state reported amyloid nucleation score for YSVYKTLA -1.51

Look up and state reported amyloid nucleation score for FFIIGDCGVLSCPAGGQLWS 7.18

----------
- measurement.protocol: amyloid nucleation score (Sup35N fusion, yeast selection) (log enrichment); library NNK2; higher = more nucleation; inactive = no reads after selection
Kindly supply the reported amyloid nucleation score values for the records listed here.
Keep the answer to the number alone.

Look up and state reported amyloid nucleation score for CLNRLFHTPGDGDNYCRAIL 0.34

Look up and state reported amyloid nucleation score for CRISQTFF 1.82

Look up and state reported amyloid nucleation score for PFQVFILHYA 6.36

Look up and state reported amyloid nucleation score for NISFADSCMNFIRYY 2.4

Look up and state reported amyloid nucleation score for NDTCIRLWRWLRAQDSWLGN 0.668

Look up and state reported amyloid nucleation score for SIYKIILNSILPPHYNFLTY -1.21

Look up and state reported amyloid nucleation score for AKVCLYIAICLSLVNS 2.98

Look up and state reported amyloid nucleation score for LCNGGWIIRRADVSGVTNVE -0.09

Look up and state reported amyloid nucleation score for TCYLGPWCPIHDTRIRPGWV 0.698

Look up and state reported amyloid nucleation score for FKIDNGWYWCRTCGQNKGSS -0.461

Look up and state reported amyloid nucleation score for ILLYRNAYWYPGKSSICLTS -1.06

Look up and state reported amyloid nucleation score for FRGLVILNRNGVCDILEYGC -0.58

Look up and state reported amyloid nucleation score for RFWMNNSLNLCQLILTR 0.333

Look up and state reported amyloid nucleation score for MIGSGVW -1.07

Look up and state reported amyloid nucleation score for AAELLLSSGLVRQHAARRQY 0.695

Look up and state reported amyloid nucleation score for TDLNHACCSNPLSF -0.468

Look up and state reported amyloid nucleation score for IHIWGSLSIDIEFVCGRQAK 1.99

Look up and state reported amyloid nucleation score for EGNRNEVSFYVMFSAVPSGL 9.22

Look up and state reported amyloid nucleation score for PNMGLVNCRRNFCCRLWRIC -0.469

Look up and state reported amyloid nucleation score for VHVWWANVIRVMYNHVRSDW 0.133

----------
- measurement.protocol: amyloid nucleation score (Sup35N fusion, yeast selection) (log enrichment); library NNK2; higher = more nucleation; inactive = no reads after selection
assay.readout: amyloid nucleation score

Some solved cases for reference:
substance: SLWYFCRPIGGI
measured: -0.391

substance: AFHWMF
measured: 0.544

substance: LRDCLIRNPLKLRTKLTGHV
measured: 0.608

substance: HEMRDGNSRLMFYWGVSCNM
measured: 0.062

substance: TRCKGHYVWSLQSFRCSIVK
measured: -0.512

Look up and state reported amyloid nucleation score for LNYYWRFMPGGIGITGSSLS 1.72

Look up and state reported amyloid nucleation score for FVDDLARGLLVKRECSWQMQ 0.523

Look up and state reported amyloid nucleation score for MELTSN inactive

Look up and state reported amyloid nucleation score for YIGLSRATWM -1.75

Look up and state reported amyloid nucleation score for FSSNLISPSVEISCVLIWLG 5.67

----------
- measurement.protocol: amyloid nucleation score (Sup35N fusion, yeast selection) (log enrichment); library NNK1; higher = more nucleation; inactive = no reads after selection
Lab note: anything with amyloid nucleation score at or over -0.2 counts as True; the rest go in False.

# check: amyloid nucleation score of IVVVGD is greater than or equal to -0.2 False

# check: amyloid nucleation score of CSKIVYPCSTFTSLFYLFLP is greater than or equal to -0.2 False

# check: amyloid nucleation score of YFMTHRGLCRCISLSYNFKI is greater than or equal to -0.2 False

# check: amyloid nucleation score of RFWSAL is greater than or equal to -0.2 True

# check: amyloid nucleation score of MYYDMLSCFGEVKRS is greater than or equal to -0.2 True

# check: amyloid nucleation score of CKVDRFIRCGVGYLSG is greater than or equal to -0.2 True

# check: amyloid nucleation score of NMLWSGITKFGGRGLKSMVV is greater than or equal to -0.2 True

# check: amyloid nucleation score of ILSERHWVFELYGLCGWRRE is greater than or equal to -0.2 True

# check: amyloid nucleation score of WYHSYCVVHSFWYATSPLNS is greater than or equal to -0.2 False

# check: amyloid nucleation score of QWAFYVNYLTSRDYFNIFTR is greater than or equal to -0.2 True

# check: amyloid nucleation score of VARYSDRSNTEAYRVRFLGI is greater than or equal to -0.2 True

# check: amyloid nucleation score of IWPLGNAIK is greater than or equal to -0.2 True

# check: amyloid nucleation score of SKFFQLFSVTILYAMDSGPC is greater than or equal to -0.2 False

# check: amyloid nucleation score of WLLVNMDDYLAGYCITHFRN is greater than or equal to -0.2 False

# check: amyloid nucleation score of SASSMVFNTTSPT is greater than or equal to -0.2 False

# check: amyloid nucleation score of QKLLTSMSVITW is greater than or equal to -0.2 True

# check: amyloid nucleation score of YKKGYWSGDVAFVWWFTYMC is greater than or equal to -0.2 True

# check: amyloid nucleation score of YWLSTTIRYVCEVQATPCWI is greater than or equal to -0.2 False

# check: amyloid nucleation score of IIKDDLRMCWDGKRYWNSLI is greater than or equal to -0.2 True

# check: amyloid nucleation score of HDFRFIGSWHLTYGPSVTTT is greater than or equal to -0.2 False

# check: amyloid nucleation score of GYFYFRQIIQSDRPFIYNIP is greater than or equal to -0.2 True

# check: amyloid nucleation score of RGNLESFVLGNIRVTNP is greater than or equal to -0.2 True

# check: amyloid nucleation score of YPAPPTNCLRQ is greater than or equal to -0.2 False

# check: amyloid nucleation score of FMISRFLAMRILRTAIWRED is greater than or equal to -0.2 True

# check: amyloid nucleation score of NISRAVHTRMGGYMSPTWLK is greater than or equal to -0.2 True

# check: amyloid nucleation score of ILKELSKPGVQPVVS is greater than or equal to -0.2 True

# check: amyloid nucleation score of TLDKDLDMGRP is greater than or equal to -0.2 True

# check: amyloid nucleation score of FTVSRPIMYIVYNCLHSVCV is greater than or equal to -0.2 True

# check: amyloid nucleation score of YILSISYYFPRGMVDIVMFM is greater than or equal to -0.2 True

# check: amyloid nucleation score of YTWGRLGSEIKPARASMHLA is greater than or equal to -0.2 True

# check: amyloid nucleation score of HYYVLCFRVHLGQ is greater than or equal to -0.2 True

# check: amyloid nucleation score of VPWSFLQRSWLDIWECPYKL is greater than or equal to -0.2 False

# check: amyloid nucleation score of GEDVFVRSNELRN is greater than or equal to -0.2 True

# check: amyloid nucleation score of TEIILYSILLSMYDLMFVVI is greater than or equal to -0.2 True

# check: amyloid nucleation score of RITHRFVFTRAFTNGRALLR is greater than or equal to -0.2 True

# check: amyloid nucleation score of YLNACGSSVRTKVRCSRVIL is greater than or equal to -0.2 False

# check: amyloid nucleation score of FRNDGYLNSYMSRRVIIPSD is greater than or equal to -0.2 True

# check: amyloid nucleation score of RVLATKRRLQKRLHESVLLA is greater than or equal to -0.2 True

# check: amyloid nucleation score of ARVSRSFVSRAANIHGNCRR is greater than or equal to -0.2 True

# check: amyloid nucleation score of TERDCRCSFGTVPMCSMGNW is greater than or equal to -0.2 True

# check: amyloid nucleation score of PGMNSRCCA is greater than or equal to -0.2 True

# check: amyloid nucleation score of IWVSGWNYVGRVVVEYQRLS is greater than or equal to -0.2 True

# check: amyloid nucleation score of QMGELSSYRLFGIRTFRF is greater than or equal to -0.2 True

# check: amyloid nucleation score of CWGLRLLSFVRRLV is greater than or equal to -0.2 True

# check: amyloid nucleation score of TMLLDAYHEFKWANTNLFWL is greater than or equal to -0.2 False

# check: amyloid nucleation score of DLYSGSSFPEISGETSGYIP is greater than or equal to -0.2 True

# check: amyloid nucleation score of MASTESNPIKLLKVHLKYTS is greater than or equal to -0.2 False

# check: amyloid nucleation score of YSFIKCGSMCKEYKPCPTKL is greater than or equal to -0.2 True

# check: amyloid nucleation score of YMASDEVNI is greater than or equal to -0.2 False

# check: amyloid nucleation score of IPRGCRFKSRVTVKINSGAG is greater than or equal to -0.2 True

# check: amyloid nucleation score of DCGAWGHTLVSWSKYLGKSF is greater than or equal to -0.2 True

# check: amyloid nucleation score of SMVKRSSVVYGLSRGSIKER is greater than or equal to -0.2 True

# check: amyloid nucleation score of SNMNAFYTLEHVMPAKFEIS is greater than or equal to -0.2 True

# check: amyloid nucleation score of VGITDSNRVLILSGQIHGVM is greater than or equal to -0.2 True
